- Test system: Enterococcus sp.
- test-details: In vitro antibacterial evaluation: minimum inhibitory concentration (MIC), broth dilution method
- Assay type: cell-based
- condition-info: Enterococcus faecium (GC 2243); 18 hours at 35° C.
quantity: MIC Enterococcus faecium (GC 2243) (µg/mL)
Kindly answer with a numeric value in µg/mL, unit omitted.

So for N=C1NCC(C(O)C2NC(=O)C(Cc3ccc(OC4OC(CO)C(OC5OC6COC7(OC6C(O)C5O)C5CC6CC(C5)CC7C6)C(O)C4O)cc3)NC(=O)C(Cc3ccccc3)NC(=O)CNC(=O)C(CO)NC(=O)C(C(O)C3CNC(=N)N3C3OC(CO)C(O)C(O)C3O)NC2=O)N1 (stereo not shown) , the logged MIC Enterococcus faecium (GC 2243) turned out to be 1

So for COc1ccc(COCC2OC(OC3C(CO)OC(Oc4ccc(CC5NC(=O)C(C(C)c6ccccc6)NC(=O)CNC(=O)C(CO)NC(=O)C(C(O)C6CNC(=N)N6C6OC(CO)C(O)C(O)C6O)NC(=O)C(C(O)C6CNC(=N)N6)NC5=O)cc4)C(O)C3O)C(O)C(O)C2O)c2ccccc12 (stereo not shown) , the logged MIC Enterococcus faecium (GC 2243) turned out to be 16

So for N=C1NCC(C(O)C2NC(=O)C(Cc3ccc(OC4OC(CO)C(OC5OC6COC(Cc7ccccc7)OC6C(O)C5O)C(O)C4O)cc3)NC(=O)C(CC3CCCCC3)NC(=O)CNC(=O)C(CO)NC(=O)C(C(O)C3CNC(=N)N3C3OC(CO)C(O)C(O)C3O)NC2=O)N1 (stereo not shown) , the logged MIC Enterococcus faecium (GC 2243) turned out to be 4
